Let's look at some binders and their measured binding intensity.
# assayed.target: T1, human ROR2 expressed on the cell surface (human, UniProt Q01974 34-943)
# T1 construct: Endogenous ROR2 of human tumour cell lines; also called cell surface ROR2; ROR2 on tumour cell lines
# T1 sequence (Q01974 34-943 limits assumed): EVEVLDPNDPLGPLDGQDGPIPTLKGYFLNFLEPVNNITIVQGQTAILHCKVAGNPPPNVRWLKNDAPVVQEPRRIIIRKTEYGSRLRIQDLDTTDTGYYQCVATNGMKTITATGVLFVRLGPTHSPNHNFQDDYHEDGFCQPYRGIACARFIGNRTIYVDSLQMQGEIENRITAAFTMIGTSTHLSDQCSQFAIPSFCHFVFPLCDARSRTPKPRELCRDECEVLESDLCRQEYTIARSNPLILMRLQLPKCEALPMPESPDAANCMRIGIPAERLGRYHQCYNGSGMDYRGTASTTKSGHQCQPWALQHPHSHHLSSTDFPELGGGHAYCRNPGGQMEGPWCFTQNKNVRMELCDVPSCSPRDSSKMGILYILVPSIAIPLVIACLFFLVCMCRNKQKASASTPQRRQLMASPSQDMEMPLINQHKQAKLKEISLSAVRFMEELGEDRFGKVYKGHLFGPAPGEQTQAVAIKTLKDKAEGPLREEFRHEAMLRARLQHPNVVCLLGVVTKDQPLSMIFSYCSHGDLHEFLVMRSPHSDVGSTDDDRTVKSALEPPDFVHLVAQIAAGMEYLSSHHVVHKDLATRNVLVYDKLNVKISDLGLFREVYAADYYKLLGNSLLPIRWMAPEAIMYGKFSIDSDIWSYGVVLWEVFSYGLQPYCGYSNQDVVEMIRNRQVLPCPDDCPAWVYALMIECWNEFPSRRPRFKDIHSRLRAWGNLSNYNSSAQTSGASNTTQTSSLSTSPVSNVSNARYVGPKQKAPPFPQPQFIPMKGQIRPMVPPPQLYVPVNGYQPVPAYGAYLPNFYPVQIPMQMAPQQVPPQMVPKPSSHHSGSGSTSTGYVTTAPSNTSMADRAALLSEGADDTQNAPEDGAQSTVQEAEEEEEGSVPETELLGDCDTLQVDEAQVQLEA
# method.summary: flow cytometry, BE(2)S cells (neuroblastoma)
# Set-up: unit not given here
property.name: binding intensity

{"binder": "ROR2-23 full length human IgG1 antibody (antibody, V domains shown, The light chain of clone 023 is labelled kappa; also called clone #23; clone #023 IgG1) VH: EVQLVQSGAEVKKPGESLKISCQGSGYRFSKYWIGWVRQMPGKGLEWMGIIYPGDSDTRYSPSFQGQVTISADKSISTAYLQWSSLKASDTAMYYCARSFSSFIYDYWGQGTLVTVSS VL: ETTLTQSPGTLSVSPGERATLSCRASQSVSSNLAWYQQKRGQAPRLLIYGASTRATGIPVRFSGSGSGTEFTLTISRLEPEDFAVYYCQQYGRSPLTFGGGTKVDIKR", "reported.value": 26}
{"binder": "ROR2-90 full length human IgG1 antibody (antibody, V domains shown, also called clone #90; antibody #90) VH: EVQLVESGPGLVKPSQTLSLTCTVSGGSISSGGYYWSWIRQHPGKGLEWIGYIYYSGSTYYNPSLKSRVTISVDTSKNQFSLKLSSVTAADTAMYYCARGGLYWTYSQDVWGQGTLVTVSS VL: QPVLTQPPSASGTPGQRVTISCSGSSSNIGSDYVSWYQQLPGTAPKLLIYRNDQRPSGVPDRFSGSKSGTSASLAISGLRSEDEADYYCVAWDDSLSGYVFGSGTKVTVLG", "reported.value": 40}
{"binder": "ROR2-240 full length human IgG1 antibody (antibody, V domains shown, also called clone #240 IgG1) VH: QITLKESGPELVKPTQTLTLTCTFSGFSLSTSGMSVSWIRQPPGKALEWLARIDWDDDKYYSTSLKTRLTISKDTSKNQVVLTMTNTDPVDTATYYCARGFYLAYGSYDSWGQGTLVTVSS VL: QSALTQPASVSGSPGQSITISCTGTSGDVGGYNYVSWYQHHPGKAPKLIIYDVNKRPSGFSDRFSGSKSGNTASLTISGLQAEDEADYYCSSYTSTSTVFGGGTKLTVLG", "reported.value": 26}
